- assayDetails: Biodistribution of radiotracers in normal mice
- Type: in vivo, mouse
- conditionDescription: normal male mice, 30 min
observable: Biodistribution: Kidney (% dose/g)

- compound: "O=C(O)CC[C@H](NC(=O)N[C@@H](CCCCNC(=O)CCCCCNC(=O)CCc1ccc2c(c1)C[N+]13CC[N+]45CC(=O)[O][68Ga-3]14([O]C(=O)C3)([O]2)[O]c1ccc(CCC(=O)NCCNC(=O)CN2CCN(CC(=O)O)CCN(CC(=O)O)CCN(CC(=O)O)CC2)cc1C5)C(=O)O)C(=O)O (stereo partly drawn) [[^68Ga]1g]"
  observable: "Biodistribution: Kidney"
  experimentalValue: 110
- compound: "O=C(O)CCc1ccc2c(c1)C[N+]13CC[N+]45CC(=O)[O][68Ga-3]14([O]C(=O)C3)([O]2)[O]c1ccc(CCC(=O)NCC(=O)N[C@@H](Cc2ccc(OCC(=O)N[C@@H](Cc3ccccc3)C(=O)NCCCC[C@H](NC(=O)N[C@@H](CCC(=O)O)C(=O)O)C(=O)O)cc2)C(=O)O)cc1C5 (stereo partly drawn) [[^68Ga]5b]"
  observable: "Biodistribution: Kidney"
  experimentalValue: 73.96
- compound: "O=C(O)CCc1ccc2c(c1)C[N+]13CC[N+]45CC(=O)[O][68Ga-3]14([O]C(=O)C3)([O]2)[O]c1ccc(CCC(=O)NCCCCCC(=O)NCCCC[C@H](NC(=O)N[C@@H](CCC(=O)O)C(=O)O)C(=O)O)cc1C5 (stereo partly drawn) [[^68Ga]1a, reference compound]"
  observable: "Biodistribution: Kidney"
  experimentalValue: 108
- compound: "O=C(O)CCc1ccc2c(n1)C[N+]13CC[N+]45CC(=O)[O][68Ga-3]14([O]C(=O)C3)([O]2)[O]c1ccc(CCC(=O)NCCCCCC(=O)NCCCC[C@H](NC(=O)N[C@@H](CCC(=O)O)C(=O)O)C(=O)O)nc1C5 (stereo partly drawn) [[^68Ga]2]"
  observable: "Biodistribution: Kidney"
  experimentalValue: 108
- compound: "O=C(O)CC[C@H](NC(=O)N[C@@H](CCCCNC(=O)CCCCCNC(=O)CCc1ccc2c(n1)C[N+]13CC[N+]45CC(=O)[O][68Ga-3]14([O]C(=O)C3)([O]2)[O]c1ccc(CCC(=O)NCCCCCC(=O)NCCCC[C@H](NC(=O)N[C@@H](CCC(=O)O)C(=O)O)C(=O)O)nc1C5)C(=O)O)C(=O)O (stereo partly drawn) [[^68Ga]3]"
  observable: "Biodistribution: Kidney"
  experimentalValue: 94.4
- compound: "O=C(O)CCc1ccc(O)c(CN(CCN(CC(=O)O)Cc2cc(CCC(=O)NCCCCCC(=O)NCCCC[C@H](NC(=O)N[C@@H](CCC(=O)O)C(=O)O)C(=O)O)ccc2O)CC(=O)O)n1 [[^68Ga]4a, metal not drawn]"
  observable: "Biodistribution: Kidney"
  experimentalValue: 148

====

- assayDetails: Biodistribution of radiotracers in normal mice
- Assay type: in vivo, mouse
- conditionDescription: normal male mice, 30 min
# maps each entry to its Biodistribution: Blood
observable: Biodistribution: Blood (% dose/g)

- molecule: "O=C(O)CCc1ccc(O)c(CN(CCN(CC(=O)O)Cc2cc(CCC(=O)NCCCCCC(=O)NCCCC[C@H](NC(=O)N[C@@H](CCC(=O)O)C(=O)O)C(=O)O)ccc2O)CC(=O)O)n1 [[^68Ga]4a, metal not drawn]"
  readoutUnits: "% dose/g"
  experimentalValue: 0.95
- molecule: "O=C(O)CCc1ccc2c(c1)C[N+]13CC[N+]45CC(=O)[O][68Ga-3]14([O]C(=O)C3)([O]2)[O]c1ccc(CCC(=O)NCCCCCC(=O)NCCCC[C@H](NC(=O)N[C@@H](CCC(=O)O)C(=O)O)C(=O)O)cc1C5 (stereo partly drawn) [[^68Ga]1a, reference compound]"
  readoutUnits: "% dose/g"
  experimentalValue: 0.54
- molecule: "O=C(O)CC[C@H](NC(=O)N[C@@H](CCCCNC(=O)CCCCCNC(=O)CCc1ccc2c(c1)C[N+]13CC[N+]45CC(=O)[O][68Ga-3]14([O]C(=O)C3)([O]2)[O]c1ccc(CCC(=O)NCCNC(=O)CN2CCN(CC(=O)O)CCN(CC(=O)O)CCN(CC(=O)O)CC2)cc1C5)C(=O)O)C(=O)O (stereo partly drawn) [[^68Ga]1g]"
  readoutUnits: "% dose/g"
  experimentalValue: 0.68
- molecule: "O=C(O)CC[C@H](NC(=O)N[C@@H](CCCCNC(=O)CCCCCNC(=O)CCc1ccc2c(n1)C[N+]13CC[N+]45CC(=O)[O][68Ga-3]14([O]C(=O)C3)([O]2)[O]c1ccc(CCC(=O)NCCCCCC(=O)NCCCC[C@H](NC(=O)N[C@@H](CCC(=O)O)C(=O)O)C(=O)O)nc1C5)C(=O)O)C(=O)O (stereo partly drawn) [[^68Ga]3]"
  readoutUnits: "% dose/g"
  experimentalValue: 3.19
- molecule: "O=C(O)CCc1ccc2c(c1)C[N+]13CC[N+]45CC(=O)[O][68Ga-3]14([O]C(=O)C3)([O]2)[O]c1ccc(CCC(=O)NCC(=O)N[C@@H](Cc2ccc(OCC(=O)N[C@@H](Cc3ccccc3)C(=O)NCCCC[C@H](NC(=O)N[C@@H](CCC(=O)O)C(=O)O)C(=O)O)cc2)C(=O)O)cc1C5 (stereo partly drawn) [[^68Ga]5b]"
  readoutUnits: "% dose/g"
  experimentalValue: 1.13
- molecule: "O=C(O)CCc1ccc2c(n1)C[N+]13CC[N+]45CC(=O)[O][68Ga-3]14([O]C(=O)C3)([O]2)[O]c1ccc(CCC(=O)NCCCCCC(=O)NCCCC[C@H](NC(=O)N[C@@H](CCC(=O)O)C(=O)O)C(=O)O)nc1C5 (stereo partly drawn) [[^68Ga]2]"
  readoutUnits: "% dose/g"
  experimentalValue: 1.18
